# Tested on: OXA-48 (Klebsiella pneumoniae)
# Construct: pOPINF-OXA-48^(23-265) (previously cloned as described in Cahill et al); hexahistidine tag with 3C protease site (pOPINF) (N, cleaved yes)
# Sequence (Q6XEC0 23-265 limits assumed): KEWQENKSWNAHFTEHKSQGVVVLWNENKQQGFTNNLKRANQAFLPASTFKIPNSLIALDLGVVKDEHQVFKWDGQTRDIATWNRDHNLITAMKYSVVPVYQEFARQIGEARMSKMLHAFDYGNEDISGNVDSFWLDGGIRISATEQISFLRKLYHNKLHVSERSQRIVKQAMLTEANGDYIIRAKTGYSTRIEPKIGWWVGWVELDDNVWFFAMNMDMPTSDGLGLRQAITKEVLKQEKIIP
# Experimental details: IC50 determination, inhibition of nitrocefin hydrolysis by OXA-48
# Recorded conditions: 1 nM enzyme pre-incubated 10 min with inhibitor, 75 μM nitrocefin, pH 7.6; read-out: IC50 against OXA-48
Measure: IC50 (µM)
Quick note: give the figure in µM, leave out the unit.

Need IC50 of "NCCONC(=O)[C@@H]1CC[C@@H]2CN1C(=O)N2OS(=O)(=O)O" , thanks.
19.9

---

# Tested on: OXA-163 (Klebsiella pneumoniae, UniProt Q6XEC0, DEL214-217/S212D)
# Experimental details: IC50 determination, inhibition of nitrocefin hydrolysis by OXA-163
Measure: pIC50
Formally, pIC50 is defined as -log10 of the concentration c, with c in mol/L.

Need pIC50 of "NCCONC(=O)[C@@H]1CC[C@@H]2CN1C(=O)N2OS(=O)(=O)O" , thanks.
5.91
